- assay target: TDP1 (Homo sapiens (Human), UniProt Q9NUW8)
- Sequence (Q9NUW8 whole entry): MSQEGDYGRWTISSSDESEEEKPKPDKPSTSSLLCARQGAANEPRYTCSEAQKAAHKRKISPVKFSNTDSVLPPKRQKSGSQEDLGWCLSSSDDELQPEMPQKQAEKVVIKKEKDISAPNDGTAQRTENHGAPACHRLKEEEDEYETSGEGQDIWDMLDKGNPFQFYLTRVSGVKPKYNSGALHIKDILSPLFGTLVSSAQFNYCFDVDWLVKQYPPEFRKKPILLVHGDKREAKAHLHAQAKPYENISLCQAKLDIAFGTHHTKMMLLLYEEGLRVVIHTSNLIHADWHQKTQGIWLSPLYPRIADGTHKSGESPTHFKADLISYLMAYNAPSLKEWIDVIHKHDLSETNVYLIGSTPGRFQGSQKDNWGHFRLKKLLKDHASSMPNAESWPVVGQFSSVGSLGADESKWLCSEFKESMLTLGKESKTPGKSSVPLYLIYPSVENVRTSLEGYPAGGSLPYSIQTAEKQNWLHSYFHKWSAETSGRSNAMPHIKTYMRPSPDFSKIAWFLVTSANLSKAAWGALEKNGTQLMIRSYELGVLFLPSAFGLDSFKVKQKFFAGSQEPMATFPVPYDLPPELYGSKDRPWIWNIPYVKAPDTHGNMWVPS
- assay summary: TDP1 gel-based in vitro fluorescence assay
- Type: biochemical
- condition context: Table 8, lead compounds with different linkers; read-out: TDP1 IC50
outcome measure: IC50 (µM)

Reference set (5 entries):
> print(dat)
                                  structure  outcome.measure  output.unit  test.value
1  N#Cc1ccc(-c2ccc(Cn3cc(-c4ccc5nc(-c6ccccc6)c(Nc6ccc(C(=O)O)cc6)n5c4)nn3)cc2)nc1             IC50           µM        66.4
2  N#Cc1ccc(-c2ccc(Cn3cc(-c4ccc(-c5nc6cc(-c7ccccc7)ccn6c5Nc5ccc(C(=O)O)cc5)cc4)nn3)cc2)nc1             IC50           µM         3.1
3  N#Cc1ccc(-c2ccc(Cn3cc(COc4ccc(-c5nc6cc(-c7ccccc7)ccn6c5Nc5ccc(C(=O)O)cc5)cc4)nn3)cc2)nc1             IC50           µM        23.5
4  N#Cc1ccc(-c2ccc(Cn3cc(COc4ccc(-c5nc6ccccn6c5Nc5ccc(C(=O)O)cc5)cc4)nn3)cc2)nc1             IC50           µM          60
5  N#Cc1ccc(-c2ccc(/C=N/OCc3ccc(-c4nc5cc(-c6ccccc6)ccn5c4Nc4ccc(C(=O)O)cc4)cc3)cc2)nc1             IC50           µM        0.38

A. N#Cc1ccc(-c2ccc(Cn3cc(-c4ccn5c(Nc6ccc(C(=O)O)cc6)c(-c6ccccc6)nc5c4)nn3)cc2)nc1
B. N#Cc1ccc(-c2ccc(CO/N=C/c3ccc(-c4nc5cc(-c6ccccc6)ccn5c4Nc4ccc(C(=O)O)cc4)cc3)cc2)nc1
Looking at recorded values for IC50, does A or B come in lower? Give the label of your selection. A

---

- assay target: TDP2 (Homo sapiens (Human), UniProt O95551)
- Sequence (O95551 whole entry, species assumed): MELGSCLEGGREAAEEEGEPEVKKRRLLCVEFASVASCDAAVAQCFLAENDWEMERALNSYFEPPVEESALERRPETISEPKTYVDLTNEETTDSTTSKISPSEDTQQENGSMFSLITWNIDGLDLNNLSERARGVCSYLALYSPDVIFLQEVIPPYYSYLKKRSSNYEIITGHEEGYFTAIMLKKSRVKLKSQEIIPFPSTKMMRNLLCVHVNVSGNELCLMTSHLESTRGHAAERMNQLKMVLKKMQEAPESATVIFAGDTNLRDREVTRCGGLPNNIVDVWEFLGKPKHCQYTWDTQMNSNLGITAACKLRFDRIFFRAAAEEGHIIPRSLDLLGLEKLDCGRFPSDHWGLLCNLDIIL
- assay summary: gel-based TDP2 fluorescence assay in vitro
- Type: biochemical
- condition context: purified oximes; read-out: TDP2 IC50
outcome measure: IC50 (µM)
The response must be a number in µM with no trailing unit.

Request body: readout IC50, system TDP2 (Homo sapiens (Human), UniProt O95551), query O=C(O)c1ccc(Nc2c(-c3ccc(CO/N=C/c4ccc(-c5cnccn5)cc4)cc3)nc3cc(-c4ccccc4)ccn23)cc1 . Return the value. 8.8

---

- assay target: TDP1 (Homo sapiens (Human))
- assay summary: TDP1 gel-based in vitro fluorescence assay
- Assay type: biochemical
- condition context: purified oximes and SMM leads; read-out: TDP1 IC50
# pIC50 per record follows
In plain terms, pIC50 is the concentration in mol/L turned into minus its base-10 logarithm.

> print(dat)
                                   compound  outcome.measure  test.value
1  O=C(O)c1ccc(Nc2c(-c3ccc(CO/N=C/c4ccc(-c5cnccn5)cc4)cc3)nc3cc(-c4ccccc4)ccn23)cc1 [XZ702]            pIC50        5.51

Now turn to the next compound.
Please give the measured pIC50 for this compound: N#Cc1ccc(-c2ccc(/C=N/OCc3ccc(-c4nc5cc(-c6ccccc6)ccn5c4Nc4ccc(C(=O)O)cc4)cc3)cc2)nc1 [XZ701] 6.42
